Tested on: 616215-338-R-J1-PDC complex spheroid viability;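 note: spheroids exposed to compounds for one week before readout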
Assay: Anticancer human tumor 616215-338-R-J1-PDC patient-derived colon adenocarcinoma cell line growth inhibition [POLQ]
Conditions: curve of first compound; second compound 0.1 µM
Protocol: Multicellular complex tumor spheroid response to Polymerase (POL) inhibitors (novobiocin, ART-558, RP6685) in combination with a variety of drugs and investigational agents in selected tumor cell lines The POL inhibitors (novobiocin, ART-558, and RP6685) were evaluated both individually and in combination with standard of care and investigational anticancer small molecules within a complex spheroid model of solid tumors. . […]
pIC50: −log10 of the molar value.

{"compound": "COc1cc(C2c3cc4c(cc3C(OC3OC5COC(C)OC5C(O)C3O)C3COC(=O)C23)OCO4)cc(OC)c1O (stereo not given) + COC1C(OC(N)=O)C(O)C(Oc2ccc3c(O)c(NC(=O)c4ccc(O)c(CC=C(C)C)c4)c(=O)oc3c2C)OC1(C)C", "system-name": "616215-338-R-J1-PDC complex spheroid viability", "result-comparator": "<", "pIC50": 5.00}
{"compound": "CCc1cc2c(N3CCc4c(cc(Cn5ccnc5)cc4-c4cn(C)nc4C(F)(F)F)C3=O)cc(C)nc2c(OC)n1 + Nc1ccc(C#CCN(C(=O)Cc2ncc(C(F)(F)F)cc2C(F)(F)F)c2ccc(F)cc2)nn1", "system-name": "616215-338-R-J1-PDC complex spheroid viability", "result-comparator": "=", "pIC50": 5.53}
{"compound": "CC(C)n1c(=O)n(C)c2cnc3cc(F)c(-c4ccc(OCCCN5CCCCC5)nc4)cc3c21 + Cc1cccc(N(C)C(=O)C2C(O)CCN2c2nc(C)cc(C(F)(F)F)c2C#N)c1", "system-name": "616215-338-R-J1-PDC complex spheroid viability", "result-comparator": "<", "pIC50": 5.00}
{"compound": "C=CCn1c(=O)c2cnc(Nc3ccc(N4CCN(C)CC4)cc3)nc2n1-c1cccc(C(C)(C)O)n1 + Nc1ccc(C#CCN(C(=O)Cc2ncc(C(F)(F)F)cc2C(F)(F)F)c2ccc(F)cc2)nn1", "system-name": "616215-338-R-J1-PDC complex spheroid viability", "result-comparator": "=", "pIC50": 6.55}
{"compound": "C=CCn1c(=O)c2cnc(Nc3ccc(N4CCN(C)CC4)cc3)nc2n1-c1cccc(C(C)(C)O)n1 + COC1C(OC(N)=O)C(O)C(Oc2ccc3c(O)c(NC(=O)c4ccc(O)c(CC=C(C)C)c4)c(=O)oc3c2C)OC1(C)C", "system-name": "616215-338-R-J1-PDC complex spheroid viability", "result-comparator": "<", "pIC50": 6.00}
